Provide the reported NanoBRET Fold Response of each item.
Experimental System: SMO (Homo sapiens)
Construct: purchased Promega (in-house HiBiT-GPCR construct library, NanoBRET)
Sequence (Q99835 28-787): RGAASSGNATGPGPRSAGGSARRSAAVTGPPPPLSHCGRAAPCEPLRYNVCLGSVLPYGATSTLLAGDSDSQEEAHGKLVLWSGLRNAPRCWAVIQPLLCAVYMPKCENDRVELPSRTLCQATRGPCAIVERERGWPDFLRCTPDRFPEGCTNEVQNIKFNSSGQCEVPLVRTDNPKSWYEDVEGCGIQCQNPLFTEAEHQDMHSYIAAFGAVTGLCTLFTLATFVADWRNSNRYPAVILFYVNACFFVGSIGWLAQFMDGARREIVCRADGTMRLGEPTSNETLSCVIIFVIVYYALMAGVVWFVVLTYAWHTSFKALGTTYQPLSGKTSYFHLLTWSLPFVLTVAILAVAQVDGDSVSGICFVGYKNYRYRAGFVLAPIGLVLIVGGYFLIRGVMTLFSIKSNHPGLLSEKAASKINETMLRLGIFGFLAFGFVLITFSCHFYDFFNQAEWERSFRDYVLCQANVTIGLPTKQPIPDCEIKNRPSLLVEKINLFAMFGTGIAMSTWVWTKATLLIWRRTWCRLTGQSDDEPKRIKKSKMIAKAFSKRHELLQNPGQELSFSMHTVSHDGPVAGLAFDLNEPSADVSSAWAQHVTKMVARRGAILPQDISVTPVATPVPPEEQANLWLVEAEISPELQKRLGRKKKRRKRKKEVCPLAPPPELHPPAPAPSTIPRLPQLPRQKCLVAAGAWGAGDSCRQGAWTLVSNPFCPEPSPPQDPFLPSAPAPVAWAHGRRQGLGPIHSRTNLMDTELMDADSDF
Assay Summary: NanoBRET screen HiBiT-SMO in HEK293
Assay type: binding
Run Conditions: SMO; tracer 0.1μM
Procedure: Each tracer candidate was screened across the entire library of HiBiT-GPCR constructs using NanoBRET as the detection modality. As depicted in Figure 4A, the specificity of interactions was evaluated through decrease in BRET due to competitive displacement of a bound tracer by excess parental compound. Each tracer was analyzed for binding to each HiBiT-GPCR fusion in the absence and in the presence of competing parental compound. […]
One number for each entry.

Give one value of NanoBRET Fold Response per listed molecule.
1. COc1ccccc1N1CCN(CCCCN2C(=O)c3ccc(CNC(=O)CCOCCOCCOCCOCCNC(=O)CCc4ccc5n4[B-](F)(F)[N+]4=C(c6ccc[nH]6)C=CC4=C5)cc3C2=O)CC1 [NAN-190-2-NB590]
2. O=C(CCOCCOCCOCCOCCNC(=O)CCc1ccc2n1[B-](F)(F)[N+]1=C(c3ccc[nH]3)C=CC1=C2)NCCCN1CCN(C2=Nc3ccccc3Oc3ccc(Cl)cc32)CC1 [Loxapine-a-2-NB590]
3. COc1ccccc1N1CCN(CCCCN2C(=O)c3ccc(CNC(=O)CCOCCNC(=O)c4ccc(CNC(=O)CCc5ccc6n5[B-](F)(F)[N+]5=C(c7ccc[nH]7)C=CC5=C6)cc4)cc3C2=O)CC1 [NAN-190-3-NB590]
4. O=C(CCc1ccc2n1[B-](F)(F)[N+]1=C(c3ccc[nH]3)C=CC1=C2)NCc1ccc(C(=O)NCCOCCC(=O)N[C@@H]2CC[C@@]3(O)[C@H]4Cc5ccc(O)c6c5[C@@]3(CCN4CC3CC3)[C@H]2O6)cc1 [Naltrexone-3-NB590]

1. 1.11
2. 0.98
3. 0.88
4. 0.58

Give one value of NanoBRET Fold Response per listed molecule.
1. N#CN=C(NCCCOc1cccc(CN2CCCCC2)c1)NCCNC(=O)CCOCCOCCOCCOCCNC(=O)CCc1ccc2n1[B-](F)(F)[N+]1=C(c3ccc[nH]3)C=CC1=C2 [Aminopotentidine-2-NB590]
2. Cc1nc2n(c(=O)c1CCN1CCC(c3noc4cc(F)ccc34)CC1)CCCC2OC(=O)NCCOCCOCCOCCOCCNC(=O)CCc1ccc2n1[B-](F)(F)[N+]1=C(c3ccc[nH]3)C=CC1=C2 (centres unmarked) [Risperidone-2-NB590]
3. O=C(CCc1ccc2n1[B-](F)(F)[N+]1=C(c3ccc[nH]3)C=CC1=C2)NCCOCCOCCNC(=O)OCCOCCN1CCN(C2=Nc3ccccc3Sc3ccccc32)CC1 [Quetiapine-a-2-NB590]
4. CC(C)N(CC[C@H](c1ccccc1)c1cc(CCNC(=O)CCOCCOCCOCCOCCNC(=O)CCc2ccc3n2[B-](F)(F)[N+]2=C(c4ccc[nH]4)C=CC2=C3)ccc1O)C(C)C [Tolterodine-2-NB590]
5. CCCn1c(=O)c2[nH]c(-c3ccc(OCC(=O)NCCNC(=O)CCOCCNC(=O)c4ccc(CNC(=O)CCc5ccc6n5[B-](F)(F)[N+]5=C(c7ccc[nH]7)C=CC5=C6)cc4)cc3)nc2n(CCC)c1=O [XAC-3-NB590]

1: 1.03; 2: 0.86; 3: 0.94; 4: 0.73; 5: 1.01

Give one value of NanoBRET Fold Response per listed molecule.
1. CC(C)N(CC[C@H](c1ccccc1)c1cc(CCNC(=O)c2ccc(CNC(=O)CCc3ccc4n3[B-](F)(F)[N+]3=C(c5ccc[nH]5)C=CC3=C4)cc2)ccc1O)C(C)C [Tolterodine-BZ-NB590]
2. Cc1cc2c(s1)Nc1ccccc1N=C2N1CCN(CCCNC(=O)CCOCCOCCOCCOCCNC(=O)CCc2ccc3n2[B-](F)(F)[N+]2=C(c4ccc[nH]4)C=CC2=C3)CC1 [Olanzapine-a-2-NB590]

1. 0.93
2. 1.12

---

Experimental System: ADORA2B (Homo sapiens, UniProt P29275)
Construct: purchased Promega (in-house HiBiT-GPCR construct library, NanoBRET)
Sequence (P29275 whole entry): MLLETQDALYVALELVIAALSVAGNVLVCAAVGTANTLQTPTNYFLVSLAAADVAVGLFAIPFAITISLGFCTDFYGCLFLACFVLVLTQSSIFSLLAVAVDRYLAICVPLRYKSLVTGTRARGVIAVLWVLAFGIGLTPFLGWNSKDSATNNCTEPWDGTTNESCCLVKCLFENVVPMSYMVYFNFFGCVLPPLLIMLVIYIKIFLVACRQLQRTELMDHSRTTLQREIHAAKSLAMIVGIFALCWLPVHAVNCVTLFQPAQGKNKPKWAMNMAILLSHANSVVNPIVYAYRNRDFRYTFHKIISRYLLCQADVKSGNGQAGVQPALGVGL
Assay Summary: NanoBRET screen HiBiT-ADORA2B in HEK293
Format: binding
Run Conditions: ADORA2B; tracer 0.1μM
Answer not satisfied if NanoBRET Fold Response is under 0.9, and satisfied if it is 0.9 or more.

As a guide, the following entries are already answered.
Compound | Category
O=C(CCc1ccc2n1[B-](F)(F)[N+]1=C(c3ccc[nH]3)C=CC1=C2)NCc1ccc(C(=O)NCCOCCC(=O)N[C@@H]2CC[C@@]3(O)[C@H]4Cc5ccc(O)c6c5[C@@]3(CCN4CC3CC3)[C@H]2O6)cc1 [Naltrexone-3-NB590] | not satisfied
COc1ccccc1N1CCN(CCCCN2C(=O)c3ccc(CNC(=O)CCOCCNC(=O)c4ccc(CNC(=O)CCc5ccc6n5[B-](F)(F)[N+]5=C(c7ccc[nH]7)C=CC5=C6)cc4)cc3C2=O)CC1 | satisfied
O=C(CCc1ccc2n1[B-](F)(F)[N+]1=C(c3ccc[nH]3)C=CC1=C2)NCCOCCOCCNC(=O)OCCOCCN1CCN(C2=Nc3ccccc3Sc3ccccc32)CC1 | not satisfied
O=C(CCOCCOCCOCCOCCNC(=O)CCc1ccc2n1[B-](F)(F)[N+]1=C(c3ccc[nH]3)C=CC1=C2)NCCCN1CCN(C2=Nc3ccccc3Oc3ccc(Cl)cc32)CC1 | satisfied
Cc1nc2n(c(=O)c1CCN1CCC(c3noc4cc(F)ccc34)CC1)CCCC2OC(=O)NCCOCCOCCOCCOCCNC(=O)CCc1ccc2n1[B-](F)(F)[N+]1=C(c3ccc[nH]3)C=CC1=C2 (centres unmarked) | satisfied
CC(C)N(CC[C@H](c1ccccc1)c1cc(CCNC(=O)c2ccc(CNC(=O)CCc3ccc4n3[B-](F)(F)[N+]3=C(c5ccc[nH]5)C=CC3=C4)cc2)ccc1O)C(C)C | not satisfied

Next up:
Confirm if NanoBRET Fold Response reported for the compound CC(C)N(CC[C@H](c1ccccc1)c1cc(CCNC(=O)CCOCCOCCOCCOCCNC(=O)CCc2ccc3n2[B-](F)(F)[N+]2=C(c4ccc[nH]4)C=CC2=C3)ccc1O)C(C)C is 0.9 or above.
not satisfied

---

Experimental System: OXER1 (Homo sapiens)
Construct: purchased Promega (in-house HiBiT-GPCR construct library, NanoBRET)
Sequence (Q8TDS5 whole entry): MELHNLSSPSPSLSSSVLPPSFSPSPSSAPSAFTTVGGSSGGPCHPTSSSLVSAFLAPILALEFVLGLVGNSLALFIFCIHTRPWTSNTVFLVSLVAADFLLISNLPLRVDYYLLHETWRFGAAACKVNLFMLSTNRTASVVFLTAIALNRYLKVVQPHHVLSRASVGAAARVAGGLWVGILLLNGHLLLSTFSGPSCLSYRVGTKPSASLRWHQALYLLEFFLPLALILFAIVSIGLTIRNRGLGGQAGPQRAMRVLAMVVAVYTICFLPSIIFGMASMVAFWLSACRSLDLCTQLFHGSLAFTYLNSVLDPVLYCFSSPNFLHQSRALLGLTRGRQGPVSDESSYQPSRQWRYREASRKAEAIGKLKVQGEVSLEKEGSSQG
Assay Summary: NanoBRET screen HiBiT-OXER1 in HEK293
Type: binding
Run Conditions: OXER1; tracer 1μM
Experimental: Each tracer candidate was screened across the entire library of HiBiT-GPCR constructs using NanoBRET as the detection modality. As depicted in Figure 4A, the specificity of interactions was evaluated through decrease in BRET due to competitive displacement of a bound tracer by excess parental compound. Each tracer was analyzed for binding to each HiBiT-GPCR fusion in the absence and in the presence of competing parental compound. […]
Quantity Measured: NanoBRET Fold Response
Answers are plain numbers.

Solved cases (6 shown):
Compound | NanoBRET Fold Response
N#CN=C(NCCCOc1cccc(CN2CCCCC2)c1)NCCNC(=O)CCOCCOCCOCCOCCNC(=O)CCc1ccc2n1[B-](F)(F)[N+]1=C(c3ccc[nH]3)C=CC1=C2 [Aminopotentidine-2-NB590] | 1.01
CC(C)N(CC[C@H](c1ccccc1)c1cc(CCNC(=O)CCOCCOCCOCCOCCNC(=O)CCc2ccc3n2[B-](F)(F)[N+]2=C(c4ccc[nH]4)C=CC2=C3)ccc1O)C(C)C [Tolterodine-2-NB590] | 1.09
CC(C)N(CC[C@H](c1ccccc1)c1cc(CCNC(=O)c2ccc(CNC(=O)CCc3ccc4n3[B-](F)(F)[N+]3=C(c5ccc[nH]5)C=CC3=C4)cc2)ccc1O)C(C)C [Tolterodine-BZ-NB590] | 1.06
O=C(CCOCCOCCOCCOCCNC(=O)CCc1ccc2n1[B-](F)(F)[N+]1=C(c3ccc[nH]3)C=CC1=C2)NCCCN1CCN(C2=Nc3ccccc3Oc3ccc(Cl)cc32)CC1 [Loxapine-a-2-NB590] | 1.09
Cc1cc2c(s1)Nc1ccccc1N=C2N1CCN(CCCNC(=O)CCOCCOCCOCCOCCNC(=O)CCc2ccc3n2[B-](F)(F)[N+]2=C(c4ccc[nH]4)C=CC2=C3)CC1 [Olanzapine-a-2-NB590] | 1.04
O=C(CCc1ccc2n1[B-](F)(F)[N+]1=C(c3ccc[nH]3)C=CC1=C2)NCCOCCOCCNC(=O)OCCOCCN1CCN(C2=Nc3ccccc3Sc3ccccc32)CC1 [Quetiapine-a-2-NB590] | 0.98

Attention now turns to another entry.
Any idea what NanoBRET Fold Response was measured for O=C(CCc1ccc2n1[B-](F)(F)[N+]1=C(c3ccc[nH]3)C=CC1=C2)NCc1ccc(C(=O)NCCOCCC(=O)N[C@@H]2CC[C@@]3(O)[C@H]4Cc5ccc(O)c6c5[C@@]3(CCN4CC3CC3)[C@H]2O6)cc1 [Naltrexone-3-NB590] ?
0.74

---

Experimental System: MLNR (Homo sapiens)
Construct: purchased Promega (in-house HiBiT-GPCR construct library, NanoBRET)
Sequence (O43193 whole entry): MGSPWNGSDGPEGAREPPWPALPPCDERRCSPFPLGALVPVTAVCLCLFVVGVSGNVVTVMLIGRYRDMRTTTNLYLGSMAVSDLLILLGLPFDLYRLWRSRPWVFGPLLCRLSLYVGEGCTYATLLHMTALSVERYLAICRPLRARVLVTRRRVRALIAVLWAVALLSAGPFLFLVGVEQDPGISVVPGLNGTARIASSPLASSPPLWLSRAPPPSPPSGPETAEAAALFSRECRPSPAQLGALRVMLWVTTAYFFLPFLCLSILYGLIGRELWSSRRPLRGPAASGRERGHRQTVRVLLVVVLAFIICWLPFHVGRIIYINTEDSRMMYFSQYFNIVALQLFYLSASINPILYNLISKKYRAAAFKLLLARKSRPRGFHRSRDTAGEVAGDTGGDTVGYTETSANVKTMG
Assay Summary: NanoBRET screen HiBiT-MLNR in HEK293
Assay type: binding
Run Conditions: MLNR; tracer 0.1μM
I'd appreciate it if you marked entries criterion met when NanoBRET Fold Response is lower than 1 and criterion not met when it is not.

Could you please tell me whether NanoBRET Fold Response recorded for COc1ccccc1N1CCN(CCCCN2C(=O)c3ccc(CNC(=O)CCOCCOCCOCCOCCNC(=O)CCc4ccc5n4[B-](F)(F)[N+]4=C(c6ccc[nH]6)C=CC4=C5)cc3C2=O)CC1 [NAN-190-2-NB590] is less than 1?
criterion met

Also O=C(CCc1ccc2n1[B-](F)(F)[N+]1=C(c3ccc[nH]3)C=CC1=C2)NCc1ccc(C(=O)NCCOCCC(=O)N[C@@H]2CC[C@@]3(O)[C@H]4Cc5ccc(O)c6c5[C@@]3(CCN4CC3CC3)[C@H]2O6)cc1 [Naltrexone-3-NB590] ?
criterion not met

Also Cc1cc2c(s1)Nc1ccccc1N=C2N1CCN(CCCNC(=O)CCOCCOCCOCCOCCNC(=O)CCc2ccc3n2[B-](F)(F)[N+]2=C(c4ccc[nH]4)C=CC2=C3)CC1 [Olanzapine-a-2-NB590] ?
criterion not met

Also CC(C)N(CC[C@H](c1ccccc1)c1cc(CCNC(=O)c2ccc(CNC(=O)CCc3ccc4n3[B-](F)(F)[N+]3=C(c5ccc[nH]5)C=CC3=C4)cc2)ccc1O)C(C)C [Tolterodine-BZ-NB590] ?
criterion not met

Also CC(C)N(CC[C@H](c1ccccc1)c1cc(CCNC(=O)CCOCCOCCOCCOCCNC(=O)CCc2ccc3n2[B-](F)(F)[N+]2=C(c4ccc[nH]4)C=CC2=C3)ccc1O)C(C)C [Tolterodine-2-NB590] ?
criterion met
